- measured_on: HLA-B*15:09
- measurement_notes: IEDB peptide-MHC binding, purified MHC/direct/fluorescence; filed as Kd, often an IC50 or EC50 that approximates it; bounds were set here for any values at or beyond the usual limits of such assays
- reported_conditions: source organism: Influenza A virus H3N2
pKd: −log10 of the molar value.
measure_name: pKd

Q. Requested field: pKd. Item: HIPEVCLKW
A. ≤ 4.70

* * *

- measured_on: HLA-B*15:17
- measurement_notes: IEDB peptide-MHC binding, purified MHC/competitive/fluorescence; filed as Kd, often an IC50 or EC50 that approximates it; bounds were set here for any values at or beyond the usual limits of such assays
- reported_conditions: source organism: Vaccinia virus Copenhagen
measure_name: Kd

Q. Requested field: Kd. Item: SLYKYLLLR
A. ≥ 20 µM

* * *

- measured_on: HLA-B*58:01
- measurement_notes: IEDB peptide-MHC binding, purified MHC/direct/fluorescence; filed as Kd, often an IC50 or EC50 that approximates it; bounds were set here for any values at or beyond the usual limits of such assays
- reported_conditions: source organism: Brucella abortus
measure_name: Kd

Q. Requested field: Kd. Item: GLAEKPNDY
A. ≥ 20 µM

* * *

- measured_on: HLA-B*08:02
- measurement_notes: IEDB peptide-MHC binding, purified MHC/direct/fluorescence; filed as Kd, often an IC50 or EC50 that approximates it; bounds were set here for any values at or beyond the usual limits of such assays
- reported_conditions: source organism: Mycobacterium tuberculosis str. Haarlem
measure_name: pKd
Note on units: pKd is unitless, being -log10 of a concentration expressed in mol/L.

polymer_sequence=RPRRASSPF measure_name=pKd result_number=5.02

Q. Requested field: pKd. Item: APRARTAAF
A. 6.64

* * *

Overview of reported Kd across a group of sequences:
- measured_on: HLA-B*40:02
- measurement_notes: IEDB peptide-MHC binding, purified MHC/competitive/radioactivity; filed as Kd, often an IC50 or EC50 that approximates it; bounds were set here for any values at or beyond the usual limits of such assays
- reported_conditions: source organism: SARS coronavirus Tor2
Note: unit nM is implicit; provide only the numeric part.

polymer_sequence=GETALALLLL measure_name=Kd result_number=16.2
polymer_sequence=TEFACVVAEA measure_name=Kd result_number=14.6
polymer_sequence=KEGIVWVAT measure_name=Kd result_number=29.6
polymer_sequence=EELFYSYAT measure_name=Kd result_number=24.6
polymer_sequence=VENPDILRV measure_name=Kd result_number=1270

Q. What value of Kd on HLA-B*40:02 does PEYFNSVCRL have?
A. 1250

Q. Consider next the sequence WEILKFLIT in the same way.
A. 2.09

Q. Consider next the sequence VEFHLDGEVL in the same way.
A. 140

* * *

- measured_on: HLA-B*57:01
- measurement_notes: IEDB peptide-MHC binding, purified MHC/direct/fluorescence; filed as Kd, often an IC50 or EC50 that approximates it; bounds were set here for any values at or beyond the usual limits of such assays
- reported_conditions: source organism: Tai Forest virus - Cote d'Ivoire, Cote d'Ivoire, 1994
pKd: −log10 of the molar value.
measure_name: pKd

Q. Requested field: pKd. Item: FAEGVIAFL
A. ≤ 4.70

* * *

- measured_on: HLA-B*27:03
- measurement_notes: IEDB peptide-MHC binding, purified MHC/competitive/fluorescence; filed as Kd, often an IC50 or EC50 that approximates it; bounds were set here for any values at or beyond the usual limits of such assays
- reported_conditions: source organism: Vibrio parahaemolyticus K5030
pKd: −log10 of the molar value.
measure_name: pKd

Q. Requested field: pKd. Item: WLGDVWQEK
A. ≤ 4.70

Source: the Immune Epitope Database (IEDB)
